tested-system: T1, human melanocortin 4 receptor (human, UniProt P32245 1-332)
T1 construct: whole, on cells; cAMP assays used whole cells; also called hMC4-R; MC4-R
T1 sequence (P32245 whole entry): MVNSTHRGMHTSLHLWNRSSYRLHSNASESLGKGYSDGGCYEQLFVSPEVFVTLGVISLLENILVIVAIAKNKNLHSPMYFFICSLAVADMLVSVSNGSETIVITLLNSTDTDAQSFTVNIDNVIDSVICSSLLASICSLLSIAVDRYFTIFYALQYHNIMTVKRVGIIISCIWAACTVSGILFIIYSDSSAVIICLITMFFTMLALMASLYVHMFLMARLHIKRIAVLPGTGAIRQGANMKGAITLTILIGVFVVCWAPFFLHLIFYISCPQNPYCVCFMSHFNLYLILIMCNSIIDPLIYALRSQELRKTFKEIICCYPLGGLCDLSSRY
assay-comment: radioligand competition, [I125]-NDP-α-MSH, hMC4-R membranes
readout-name: pKi
// pKi: -log10(molar conc.)

Sample XDHFRXK (N-terminal acetyl; Nle at 1 (X); D-Phe at 4; Nal 1 at 6 (X); cyclo(Asp 2 to Lys 7); C-terminal ethylamide -NH-CH2-CH3, also called Compound No. 39) [Ac-Nle-cyclo(-Asp-His-D-Phe-Arg-Nal 1-Lys)-NH-CH2-CH3] ; pKi observed: 8.70

These entries and their values trace back to patent US20090081197A1.
